- System: LOX IMVI
- assay.overview: NCI tumour cell line growth inhibition, 48 h
Calls of active or inactive are those of the source. Cut-off read from the data, not from the text of the source: active = GI50 up to about 1.1 µM and inactive = higher.
Just give me one of these, please: active, inactive

CC(=O)O[C@]1(C)OC(=O)[C@@H](C)N1[N+](=O)[O-] | inactive
Cc1cn(C2OC(CO[Si](C)(C)C(C)(C)C)/C(=C\C#N)C2O[Si](C)(C)C(C)(C)C)c(=O)[nH]c1=O (stereo not drawn) | inactive
CN(C)Cc1cc(/N=N/c2cccc(Cl)c2)ccc1O | inactive
Cc1ccc(C2SC(=N)Nc3c2c(C)nn3C(=O)c2ccccc2O)cc1 (stereo not drawn) | inactive
C(=C\c1ccc2ccccc2c1Nc1ccccc1)/c1ccccc1 | inactive
CN(C)c1ccc(Cc2cc(C(C)(C)C)cc(C(C)(C)C)c2O)cc1 | inactive
O=[N+]([O-])c1c(/C=N/c2ccccc2)oc(-c2ccc3c(c2)OCO3)c1-c1ccc2c(c1)OCO2 | inactive
COC(=O)C1=C(c2ccc3c(c2)OCO3)O[C@H](c2cc(OC)c(OC)c(OC)c2)[C@H]1COC(C)=O | inactive

Name the outcome recorded for CC1(C)COC(c2cccc(C3=NC(C)(C)CO3)c2Br)=N1 in the assay.
inactive

Name the outcome recorded for COc1ccc2c3c1O[C@H]1C(OC)C=CC4C(C2)N(Cc2cccs2)CCC341 (stereo partly drawn) in the assay.
inactive

Name the outcome recorded for CCN(C(=O)N[C@@H](Cc1ccccc1)C(=O)N[C@@H](CC(C)C)C(=O)NC)c1ccccc1 in the assay.
inactive

Name the outcome recorded for O=C(O)c1ccc(C2COc3ccc(Cl)cc3C2)cc1 (stereo not drawn) in the assay.
inactive

Name the outcome recorded for Cc1ccc([N+]2=NC(c3ccc([N+](=O)[O-])cc3)=NN(c3ccccc3)C2)cc1 in the assay.
inactive

Name the outcome recorded for C=C1C(=O)O[C@H]2[C@H]([C@H](C)CCCC(C)=O)O[C@H]([C@@]3(C)CCC(=O)O3)C[C@@H]12 in the assay.
inactive

Name the outcome recorded for O=c1oc2ccc3ccccc3c2cc1-c1cn2c(n1)sc1ccccc12 in the assay.
inactive

Name the outcome recorded for C/C(Nc1ccc(Cl)cc1)=C1/CCOC1=O in the assay.
active

Name the outcome recorded for C/C(CCn1[nH]c(=O)ccc1=O)=N\Nc1ccc([N+](=O)[O-])cc1[N+](=O)[O-] in the assay.
inactive

Name the outcome recorded for O=C(O)COc1ccc(C(=O)/C(SS/C(C(=O)c2ccc(OCC(=O)O)c(Cl)c2Cl)=C2\C=C(c3ccc(Cl)cc3)SS2)=C2/C=C(c3ccc(Cl)cc3)SS2)c(Cl)c1Cl in the assay.
inactive
